target: Proteasome Macropain subunit (Saccharomyces cerevisiae S288c); assay: Inhibition of trypsin like activity of yeast 20S proteasome
Sequence (P22141 whole entry): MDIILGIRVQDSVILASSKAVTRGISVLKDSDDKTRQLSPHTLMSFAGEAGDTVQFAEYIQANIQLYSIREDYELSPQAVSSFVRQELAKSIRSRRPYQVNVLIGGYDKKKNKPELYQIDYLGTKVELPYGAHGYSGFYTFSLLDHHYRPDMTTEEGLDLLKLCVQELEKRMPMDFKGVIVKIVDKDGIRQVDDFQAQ
Residues, ends and D or L forms follow the SMILES beside them.
property_name: Ki (µM)
Report only the number, with the unit µM understood.

Ki reading for CCCCCCCCCCCCCC(=O)N[C@H](C(=O)N[C@H](C(=O)N[C@H](C(=O)N[C@@H](Cc1ccccc1)C(=O)N[C@@H](CC(=O)O)C(=O)N[C@@H](Cc1ccc(O)cc1)C(=O)O)[C@@H](C)O)[C@@H](C)CC)[C@@H](C)O (HELM PEPTIDE1{[CCCCCCCCCCCCCC(=O)[*:2]].T.I.T.F.D.Y}$$$$V2.0) : 78

* * *

molecular target: Proteasome component C5 (Saccharomyces cerevisiae S288c, UniProt P23724); test: Inhibition of post acid activity of yeast 20S proteasome
Residues, ends and D or L forms follow the SMILES beside them.
Ki by entry:
Report only the number, with the unit µM understood.

>>> assay_result("CCCCCCCCCCCCCCCC(=O)N[C@@H](Cc1ccc(O)cc1)C(=O)N[C@@H](CC(=O)O)C(=O)N[C@@H](CC(C)C)C(=O)O (HELM PEPTIDE1{[CCCCCCCCCCCCCCCC(=O)[*:2]].Y.D.L}$$$$V2.0)")
15
>>> assay_result("CCCCCCCCCC(=O)N[C@@H](Cc1ccc(O)cc1)C(=O)N[C@@H](CCC(=O)O)C(=O)N[C@@H](CC(C)C)C(=O)O (HELM PEPTIDE1{[CCCCCCCCCC(=O)[*:2]].Y.E.L}$$$$V2.0)")
72

Ki reading for CCCCCCCCCCCCCCC(N)C(=O)N[C@@H](Cc1ccc(O)cc1)C(=O)N[C@@H](CCC(=O)O)C(=O)N[C@H](C(=O)O)[C@@H](C)O (stereo not given in full) (HELM PEPTIDE1{[CCCCCCCCCCCCCCC(N)C(=O)[*:2]].Y.E.T}$$$$V2.0) : 8

Ki reading for CCCCCCCCCCCCCCCC(=O)N[C@@H](Cc1ccc(O)cc1)C(=O)N[C@@H](CCC(=O)O)C(=O)N[C@H](C(=O)O)[C@@H](C)O (HELM PEPTIDE1{[CCCCCCCCCCCCCCCC(=O)[*:2]].Y.E.T}$$$$V2.0) : 21

* * *

Activity by entry:
Molecular target: Proteasome component C5 (Saccharomyces cerevisiae S288c) (UniProt P23724)
Sequence (whole entry): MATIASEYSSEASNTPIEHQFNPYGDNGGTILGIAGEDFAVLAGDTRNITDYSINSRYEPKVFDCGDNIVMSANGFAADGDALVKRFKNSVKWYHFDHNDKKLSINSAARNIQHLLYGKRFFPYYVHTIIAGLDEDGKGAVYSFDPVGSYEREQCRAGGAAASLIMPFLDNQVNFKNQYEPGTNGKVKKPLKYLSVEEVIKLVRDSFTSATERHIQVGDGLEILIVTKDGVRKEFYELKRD
Assay: Activation of post acid activity of yeast 20S proteasome
Residues, ends and D or L forms follow the SMILES beside them.
Answer using only a numeral; do not append any unit.

// solved cases for Activity follow
>>> assay_result("CCCCCCCCCCCCCCCCCC(=O)N[C@H](C(=O)N[C@H](C(=O)N[C@H](C(=O)N[C@@H](Cc1ccccc1)C(=O)N[C@@H](CC(=O)O)C(=O)N[C@@H](Cc1ccc(O)cc1)C(=O)O)[C@@H](C)O)[C@@H](C)CC)[C@@H](C)O (HELM PEPTIDE1{[CCCCCCCCCCCCCCCCCC(=O)[*:2]].T.I.T.F.D.Y}$$$$V2.0)")
1.3
>>> assay_result("CCCCCCCCCC(=O)N[C@H](C(=O)N[C@H](C(=O)N[C@H](C(=O)N[C@@H](Cc1ccc(O)cc1)C(=O)N[C@@H](CCCCN)C(=O)N[C@@H](Cc1ccccc1)C(=O)O)[C@@H](C)O)C(C)C)[C@@H](C)O (HELM PEPTIDE1{[CCCCCCCCCC(=O)[*:2]].T.V.T.Y.K.F}$$$$V2.0)")
1.2

Let us move to another entry and its Activity.
Activity reading for CCCCCCCC(=O)N[C@H](C(=O)N[C@H](C(=O)N[C@H](C(=O)N[C@@H](Cc1ccc(O)cc1)C(=O)N[C@@H](CCCCN)C(=O)N[C@@H](Cc1ccccc1)C(=O)O)[C@@H](C)O)C(C)C)[C@@H](C)O (HELM PEPTIDE1{[CCCCCCCC(=O)[*:2]].T.V.T.Y.K.F}$$$$V2.0) : 1.3
